Item-by-item account of PBM binding z-score
test system: LXRb:RXRa (NR concentration 270 nM, RXRa partner concentration 90 nM); test: PBM binding z-score (relative to random genomic background probes); higher = stronger binding; sequences stand for … in GC…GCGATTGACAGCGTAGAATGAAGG
Lab note: jot down the number only; don't add units.

>>> numeric_result("GGAACGAGGGCAAATTTGATAGCATCTGTCGACG")
0.682
>>> numeric_result("CCTACTGGGCCACGAAAGGTCATTGGTTCAGTGA")
4.37
>>> numeric_result("CGAACTAGGTCAATGACAGTGAATCTCCGCACGC")
1.56
>>> numeric_result("CCTCGGAGGACAGAAGGTAAGAGCTGTCCGCTTT")
-1.02

Ask: Which measured PBM binding z-score value corresponds to `TCTCGGAGGACACGAAAGGTCGGAGCTCGACATC` ?
Result: 0.48

Ask: Which measured PBM binding z-score value corresponds to `GCACATAGGTAATACAAGGTGAAAGTCCGATTGT` ?
Result: 0.767

Ask: Which measured PBM binding z-score value corresponds to `CCTAGTTGGTCATGGTCACACACGCTATAGGTAC` ?
Result: 0.71

Ask: Which measured PBM binding z-score value corresponds to `CCGACTGGGGCAGTAAGGTTACCATACCATCCGG` ?
Result: -0.134

---

test system: RARb:RXRa (NR concentration 270 nM, RXRa partner concentration 90 nM); experiment: PBM binding z-score (relative to random genomic background probes); higher = stronger binding; sequences stand for … in GC…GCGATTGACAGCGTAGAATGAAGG
Property Label: PBM binding z-score
Lab note: jot down the number only; don't add units.

>>> numeric_result("TCTAGCAGGCTAGAGGGTCACTCAAGAGGTACGG")
1.93
>>> numeric_result("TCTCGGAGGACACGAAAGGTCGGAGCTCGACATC")
2.56
>>> numeric_result("CCGACTGGGGAAAAGGTTACCATACTCAGTACGA")
1.59
>>> numeric_result("CCTAGCAAGCCAATCTGGGTCACTCAAGGCTTGA")
0.92
>>> numeric_result("GCTAGCAGGCCATTTGAGTCACTCAATGACGGGC")
0.073

Ask: Identify the measured PBM binding z-score of `TCTAGCAGCCCAGAGGGTCACTCAAGAGGTACGG` for RARb:RXRa (NR concentration 270 nM, RXRa partner concentration 90 nM).
Result: 1.81

Ask: Identify the measured PBM binding z-score of `TGAATGAGGTTAACGATCAGGGAACGTGGCGTCG` for RARb:RXRa (NR concentration 270 nM, RXRa partner concentration 90 nM).
Result: 2.01

Ask: Identify the measured PBM binding z-score of `TAGCCTAGGTCATGGTCCAGTATACCACGCGAAC` for RARb:RXRa (NR concentration 270 nM, RXRa partner concentration 90 nM).
Result: 3.78

Ask: Identify the measured PBM binding z-score of `GCATACAGGTGAAACGCAGGTAACTCAGGGTGGC` for RARb:RXRa (NR concentration 270 nM, RXRa partner concentration 90 nM).
Result: 0.744

Ask: Identify the measured PBM binding z-score of `TTACCAAGGTGAGCTGAGGTTGTTGATCCAACTC` for RARb:RXRa (NR concentration 270 nM, RXRa partner concentration 90 nM).
Result: 0.78

Ask: Identify the measured PBM binding z-score of `CCGACTGGGGCATAAGTTTACCATAAGCCAGCCC` for RARb:RXRa (NR concentration 270 nM, RXRa partner concentration 90 nM).
Result: 0.68

Ask: Identify the measured PBM binding z-score of `CCTACTAGGCCAAGGTCATTGATCAGTCAAAGCA` for RARb:RXRa (NR concentration 270 nM, RXRa partner concentration 90 nM).
Result: 3.62

The reported measurements were obtained from the supplement of paper PMC6555819.
